B1: COUP transcription factor 1, residues 83 to 159; numbered along this chain, P10589 (parent)
chain: HIECVVCGDKSSGKHYGQFTCEGCKSFFKRSVRRNLTYTCRANRNCPIDQHHRNQCQYCRLKKCLKVGMRREAVQRG

Variants of: B1
Test: abundance fitness (aPCA) (normalised: wild type 0, dead -1); higher = more abundant; growth selection in yeast, the domain comes from the species named
Details: Homo sapiens
Use abundance fitness to assign classes; range list: category 1 = under -0.1, category 2 = from -0.1 up to -0.02, category 3 = -0.02 and over

[[record]]
mutation_spec = "I48W"
assigned_label = "category 1"

[[record]]
mutation_spec = "G77T"
assigned_label = "category 3"

[[record]]
mutation_spec = "P47L"
assigned_label = "category 1"

[[record]]
mutation_spec = "L65V"
assigned_label = "category 3"

[[record]]
mutation_spec = "C56T"
assigned_label = "category 1"

[[record]]
mutation_spec = "A73H"
assigned_label = "category 3"

[[record]]
mutation_spec = "H51W"
assigned_label = "category 3"

[[record]]
mutation_spec = "N43D"
assigned_label = "category 3"

[[record]]
mutation_spec = "M69A"
assigned_label = "category 1"

[[record]]
mutation_spec = "V32I"
assigned_label = "category 2"

[[record]]
mutation_spec = "V32G"
assigned_label = "category 1"

[[record]]
mutation_spec = "N45Q"
assigned_label = "category 3"

[[record]]
mutation_spec = "V74Q"
assigned_label = "category 2"

[[record]]
mutation_spec = "L65T"
assigned_label = "category 1"

[[record]]
mutation_spec = "L36K"
assigned_label = "category 3"

[[record]]
mutation_spec = "C46M"
assigned_label = "category 1"

[[record]]
mutation_spec = "L36A"
assigned_label = "category 2"

[[record]]
mutation_spec = "R41T"
assigned_label = "category 2"

[[record]]
mutation_spec = "F27V"
assigned_label = "category 1"

[[record]]
mutation_spec = "Q18A"
assigned_label = "category 3"

[[record]]
mutation_spec = "G17N"
assigned_label = "category 1"

[[record]]
mutation_spec = "Q57P"
assigned_label = "category 2"

